- assay target: F508delCFTR (Homo sapiens, UniProt P13569, DEL508-508)
- Construct: expressed in transfected cells; host or cells: CFBE41o- (human lung derived epithelial cell line), doxycycline-inducible expression
- Sequence (P13569 with tags, fused parts or gaps DEL508-508): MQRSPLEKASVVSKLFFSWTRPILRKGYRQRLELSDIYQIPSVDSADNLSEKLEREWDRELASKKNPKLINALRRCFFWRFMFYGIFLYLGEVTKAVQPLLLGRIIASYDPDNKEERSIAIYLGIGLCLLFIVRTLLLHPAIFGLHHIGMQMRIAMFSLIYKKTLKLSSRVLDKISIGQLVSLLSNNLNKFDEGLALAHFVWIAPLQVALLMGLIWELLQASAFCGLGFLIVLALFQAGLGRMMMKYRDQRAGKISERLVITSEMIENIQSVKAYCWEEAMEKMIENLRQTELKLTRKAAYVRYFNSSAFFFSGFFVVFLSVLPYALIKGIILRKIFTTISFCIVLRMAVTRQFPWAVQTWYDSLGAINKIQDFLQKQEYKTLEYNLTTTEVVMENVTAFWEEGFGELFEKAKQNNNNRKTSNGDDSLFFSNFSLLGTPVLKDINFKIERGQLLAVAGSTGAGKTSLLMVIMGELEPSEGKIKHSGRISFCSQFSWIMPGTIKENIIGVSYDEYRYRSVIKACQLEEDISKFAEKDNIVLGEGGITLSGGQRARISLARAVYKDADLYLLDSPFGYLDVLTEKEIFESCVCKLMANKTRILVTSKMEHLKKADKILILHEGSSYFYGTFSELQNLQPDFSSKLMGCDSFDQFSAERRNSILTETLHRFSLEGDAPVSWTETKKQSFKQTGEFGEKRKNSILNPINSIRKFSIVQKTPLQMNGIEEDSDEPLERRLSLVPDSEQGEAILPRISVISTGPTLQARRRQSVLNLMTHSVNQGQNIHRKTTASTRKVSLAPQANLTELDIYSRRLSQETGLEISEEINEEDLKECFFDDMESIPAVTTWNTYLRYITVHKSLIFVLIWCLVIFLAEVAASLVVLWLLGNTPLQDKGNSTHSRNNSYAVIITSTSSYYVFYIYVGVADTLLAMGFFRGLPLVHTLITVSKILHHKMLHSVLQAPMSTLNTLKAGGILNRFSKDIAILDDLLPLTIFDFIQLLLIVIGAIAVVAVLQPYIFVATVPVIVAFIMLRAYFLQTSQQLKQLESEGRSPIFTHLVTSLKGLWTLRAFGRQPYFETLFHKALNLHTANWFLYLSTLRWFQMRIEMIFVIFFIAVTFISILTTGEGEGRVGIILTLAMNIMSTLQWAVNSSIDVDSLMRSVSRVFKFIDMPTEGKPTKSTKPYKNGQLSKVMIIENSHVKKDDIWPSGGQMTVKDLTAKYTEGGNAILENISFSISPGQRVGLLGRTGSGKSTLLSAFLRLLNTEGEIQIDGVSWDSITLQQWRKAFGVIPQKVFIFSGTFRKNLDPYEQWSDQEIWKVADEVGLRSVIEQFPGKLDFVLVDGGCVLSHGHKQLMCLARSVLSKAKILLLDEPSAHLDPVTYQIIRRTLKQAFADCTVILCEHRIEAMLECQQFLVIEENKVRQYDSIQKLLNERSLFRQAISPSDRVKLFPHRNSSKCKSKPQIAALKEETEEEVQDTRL
- protocol summary: Cell Surface Expression-Horse Radish Peroxidase (CSE-HRP) assay
- Assay type: cell-based
- stated conditions: CFBE41o-F508delCFTR-HRP cells; test compound without co-corrector; 18-24 hours at 33° C.; read-out: EC50 (without co-corrector)
pEC50: −log10 of the molar value.
experimental readout: pEC50

Answered examples (5):
compound	assay target	experimental readout	test value
COc1ncc(C(F)(F)F)cc1CO[C@H]1[C@H](C(C)(C)OC)[C@@H](C(=O)O)N(C(=O)C2CCCCC2)[C@H]1c1ccccc1C(C)C [Example 258]	F508delCFTR (Homo sapiens, UniProt P13569, DEL508-508)	pEC50	> 6.00
COc1nc2cc(C)cc(C)c2cc1CO[C@H]1[C@H](C(C)(C)C)[C@@H](C(=O)O)N(C(=O)OC(C)C)[C@H]1c1cccnc1OC(C)C [Example 253]	F508delCFTR (Homo sapiens, UniProt P13569, DEL508-508)	pEC50	5.00 to 6.00
COc1ncc(C2CCC2)cc1CO[C@H]1[C@H](C(C)(C)C)[C@@H](C(=O)O)N(C(=O)C2CCCCC2)[C@H]1c1ccccc1C(C)C [Example 295]	F508delCFTR (Homo sapiens, UniProt P13569, DEL508-508)	pEC50	> 6.00
COc1ncc(-c2ccc(F)cc2C)cc1CO[C@H]1[C@H](C(C)(C)C)[C@@H](C(=O)O)N(C(=O)OC(C)C)[C@H]1c1ccccc1 [Example 67]	F508delCFTR (Homo sapiens, UniProt P13569, DEL508-508)	pEC50	> 6.00
COc1ncc(C2CCCC2)cc1CO[C@H]1[C@H](C(C)(C)C)[C@@H](C(=O)O)N(C(=O)OC(C)C)[C@H]1c1ccccc1 [Example 44]	F508delCFTR (Homo sapiens, UniProt P13569, DEL508-508)	pEC50	5.00 to 6.00

Q: Please report pEC50 for the following compound: COc1ncc(C(F)(F)F)cc1CO[C@H]1[C@H](C(C)(C)C)[C@@H](C(=O)O)N(C(=O)OC(C)C)[C@H]1c1cccc(C(C)(C)C)c1 [Example 153]
A: > 6.00

Q: Please report pEC50 for the following compound: COc1ncnc(OC)c1CO[C@@H]1[C@@H](C(C)(C)C)[C@H](C(=O)O)N(C(=O)C2CCCCC2)[C@@H]1c1ccccc1 (racemic) [Example 10]
A: 5.00 to 6.00

Q: Please report pEC50 for the following compound: COc1ncc(C(F)(F)F)cc1CO[C@H]1[C@H](C(C)(C)C)[C@@H](C(=O)O)N(C(=O)[C@@H]2CCCCO2)[C@H]1c1ccccc1-c1cccc(OC(F)(F)F)c1 [Example 201]
A: 5.00 to 6.00

----------
- assay target: F508delCFTR (Homo sapiens, UniProt P13569, DEL508-508)
- Construct: expressed in transfected cells; host or cells: CFBE41o- (human lung derived epithelial cell line), doxycycline-inducible expression
- protocol summary: Cell Surface Expression-Horse Radish Peroxidase (CSE-HRP) assay;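 as to Maximum % activity (with co-corrector): % of on-plate positive control (2 µM of the co-corrector compound) after DMSO subtraction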
- Assay type: cell-based
- stated conditions: CFBE41o-F508delCFTR-HRP cells; with co-corrector (2 μM); normalized to on-plate positive control; highest concentration 20 μM
experimental readout: Maximum % activity (with co-corrector)

Answered examples (4):
compound	assay target	test value
COc1cc(OC)nc(OC2[C@@H](c3ccccc3)N(C(=O)N(C(C)C)C(C)C)[C@@H](C(=O)O)[C@@H]2C(C)(C)C)n1 (mixture of isomers)	F508delCFTR (Homo sapiens, UniProt P13569, DEL508-508)	+++ (≥350)
COc1ncc(C(F)(F)F)cc1CO[C@H]1[C@H](C(C)(C)C)[C@@H](C(=O)O)N(C(=O)[C@@H]2CCCCO2)[C@H]1c1ccccc1-c1ccoc1	F508delCFTR (Homo sapiens, UniProt P13569, DEL508-508)	+++ (≥350)
COc1ncc(C(F)(F)F)cc1CO[C@H]1[C@H](C(C)(C)C)[C@@H](C(=O)O)N(C(=O)[C@H]2CCCCO2)[C@H]1c1cccc(C(C)(C)C)c1 (single isomer, unassigned)	F508delCFTR (Homo sapiens, UniProt P13569, DEL508-508)	++ (≥150 and <350)
COc1ccc(C(F)(F)F)cc1CO[C@H]1[C@H](C(C)(C)C)[C@@H](C(=O)NS(=O)(=O)C2CC2)N(C(=O)C2CCCCC2)[C@H]1c1ccccc1	F508delCFTR (Homo sapiens, UniProt P13569, DEL508-508)	++ (≥150 and <350)

// next item, Maximum % activity (with co-corrector) requested
Q: Please report Maximum % activity (with co-corrector) for the following compound: COc1ccc(C(F)(F)F)cc1OCCO[C@H]1[C@H](C(C)(C)C)[C@@H](C(=O)O)N(C(=O)[C@@H]2CCCCO2)[C@H]1c1ccccc1C
A: +++ (≥350)
